- Target system: TRAF1
- Construct: TRAF1 protein amine-coupled to carboxylated SPR chip
- Test protocol: surface plasmon resonance, TRAF1 immobilized
- Setup conditions: PBST running buffer; analyte 0-500 μM; Fc2-Fc1 double-referenced
Observed property: Kd (µM)
Give just the number in µM; leave the unit off.

Q. // lookup Kd for N[C@@H](CCS)C(=O)O
A. 246
